ASSAY REMARKS: logP determination by HPLC on reversed-phase column (EEC Directive 79/831 Annex V.A8)
Assay type: physicochemical
CONDITION DETAILS: reversed-phase C18 HPLC column, pH 2.3, C18, 43° C., read-out: logP (pH 2.3)
TEST READOUT: chromatographic logP
Lab note: jot the number down without any unit.

*Q* Which value of chromatographic logP has been reported for CC(CC(C)(C)C)c1ccccc1NC(=O)C1=C(C(F)(F)F)OCCS1 (stereo not drawn) in the records?
*A* 4.18

*Q* Also CO/N=C/c1ccc(-c2ccccc2NC(=O)C2=C(C(F)(F)F)OCCS2)cc1 ?
*A* 3.51

*Q* Also CC(CC1CC1(Cl)Cl)c1ccccc1NC(=O)C(C)(C)C (stereo not drawn) ?
*A* 3.77

----------
ASSAY REMARKS: logP determination by HPLC on reversed-phase column (EEC Directive 79/831 Annex V.A8)
Format: physicochemical
CONDITION DETAILS: Table 1 logP / m.p., C18, 43° C., acidic range (pH 2.3)
Method: The given logP values were determined in accordance with EEC Directive 79/831 Annex V.A8 by HPLC (High Performance Liquid Chromatography) on a reversed-phase column (C 18). Temperature: 43° C. […] Calibration was carried out using unbranched alkan-2-ones (having 3 to 16 carbon atoms) with known logP values (determination of the logP values by the retention times using linear interpolation between two successive alkanones).
TEST READOUT: logP
Lab note: jot the number down without any unit.

*Q* Which value of logP has been reported for CCCON=Cc1ccc(-c2ccccc2NC(=O)C2=C(C(F)(F)F)OCCS2)cc1F [Example 25] in the records?
*A* 4.42

*Q* Also CC1CSC(C(=O)Nc2ccc(F)cc2-c2ccc(Cl)c(Cl)c2)=C(C(F)(F)F)O1 (centres unmarked) [Example 67] ?
*A* 4.32

*Q* Also CON=C(C)c1ccc(-c2ccccc2NC(=O)C2=C(C(F)(F)F)OCCS2)cc1Cl [Example 45] ?
*A* 3.45

*Q* Also Cc1cc(Cl)ccc1-c1ccccc1NC(=O)C1=C(C(F)(F)F)OCCS1(=O)=O [Example 92] ?
*A* 3.66

*Q* Also O=C(Nc1ccccc1-c1cc(F)cc(F)c1)C1=C(C(F)(F)F)OCCS1 [Example 32] ?
*A* 3.35

*Q* Also Cc1ccc(-c2ccccc2NC(=O)C2=C(C(F)(F)F)OCCS2)cc1F [Example 36] ?
*A* 3.62

*Q* Also CC(C)CC(C)c1ccccc1NC(=O)C1=C(C(F)(F)F)OCCS1(=O)=O (centres unmarked) [Example 90] ?
*A* 3.53

*Q* Also CC(CC(C)(C)C)c1ccccc1NC(=O)C1=C(C(F)F)OCCS1 (centres unmarked) [Example 81] ?
*A* 4.29

----------
ASSAY REMARKS: logP determination by HPLC on reversed-phase column (EEC Directive 79/831 Annex V.A8)
Type: physicochemical
CONDITION DETAILS: Table 1 logP / m.p., C18, 43° C., acidic range (pH 2.3)
TEST READOUT: logP
Lab note: jot the number down without any unit.

*Q* Which value of logP has been reported for CC1CC(C)(C)c2cccc(NC(=O)C3=C(C(F)F)OCCS3)c21 (centres unmarked) in the records?
*A* 4.00

*Q* Also CCC(CC(C)C)c1ccccc1NC(=O)C1=C(C(F)(F)F)OCCS1 (centres unmarked) ?
*A* 4.30

*Q* Also CCC(CC)c1ccccc1NC(=O)C1=C(C(F)(F)F)OCCS1 ?
*A* 3.62

*Q* Also CC1CSC(C(=O)Nc2ccccc2C(C)CC(C)(C)C)=C(C(F)(F)F)O1 (centres unmarked) ?
*A* 4.51

*Q* Also CCCCCCc1ccccc1NC(=O)C1=C(C(F)(F)F)OCCS1 ?
*A* 4.25

*Q* Also CC(C)(C)C#Cc1ccccc1NC(=O)C1=C(C(F)(F)F)OCCS1 ?
*A* 4.42

*Q* Also Cc1cc(-c2ccccc2NC(=O)C2=C(C(F)(F)F)OCCS2)ccc1Br ?
*A* 4.06

*Q* Also N#Cc1ccc(-c2ccccc2NC(=O)C2=C(C(F)(F)F)OCCS2)cc1 ?
*A* 2.87

*Q* Also Cc1ccc(-c2ccccc2NC(=O)C2=C(C(F)(F)F)OC(C)CS2)cc1F (centres unmarked) ?
*A* 3.99

*Q* Also O=C(Nc1ccccc1-c1ccc(I)cc1)C1=C(C(F)(F)F)OCCS1 ?
*A* 3.85

*Q* Also CCCCCC(C)c1ccccc1NC(=O)C1=C(C(F)(F)F)OCCS1 (centres unmarked) ?
*A* 4.34
